test system: Mycobacterium tuberculosis; test: Antimycobacterial activity against Mycobacterium tuberculosis H37Rv measured by MABA assay; format: functional
Classify on MIC using lower: < 0.2 µg/mL; middle: ≥ 0.2 µg/mL and < 2 µg/mL; upper: ≥ 2 µg/mL

CCCOC(=O)NC(=O)c1ccsc1NC(=O)c1ccc(S(=O)(=O)N2CCCCC2)cc1 :: lower
O=C(NC(=O)c1ccsc1NC(=O)c1ccc(S(=O)(=O)N2CCCCC2)cc1)OCC(F)(F)F :: upper
COC(=O)NC(=O)c1ccsc1NC(=O)c1ccc(S(=O)(=O)N2CCC(O)CC2)cc1 :: upper
CO[C@H]1/C=C/O[C@@]2(C)Oc3c(C)c(O)c4c(O)c(c(/C=N/N5CCN(C)CC5)c(O)c4c3C2=O)NC(=O)/C(C)=C\C=C\[C@H](C)[C@H](O)[C@@H](C)[C@@H](O)[C@@H](C)[C@H](OC(C)=O)[C@@H]1C [RIFAMPIN] :: lower
COC(=O)NC(=O)c1ccsc1NC(=O)c1ccc(S(=O)(=O)N2CCCCCC2)cc1 :: middle
COC(=O)NC(=O)c1ccsc1NC(=O)c1ccc(S(=O)(=O)N2CCC(OC)CC2)cc1 :: lower
COC(=O)NC(=O)c1ccsc1NC(=O)c1ccc(C(=O)N2CCCCC2)cc1 :: lower
CCOC(=O)NC(=O)c1ccsc1NC(=O)c1ccc(S(=O)(=O)Nc2nccs2)cc1 :: upper
COC(=O)NC(=O)c1ccsc1NC(=O)c1ccc(S(=O)(=O)N(C)C)cc1 :: middle
CCOC(=O)NC(=O)c1ccsc1NC(=O)c1ccc(S(=O)(=O)Nc2ccccn2)cc1 :: middle
Cc1ccnc(NC(=O)c2ccsc2NC(=O)c2ccc(S(=O)(=O)N3CCOCC3)cc2)n1 :: middle
CCOC(=O)NC(=O)c1ccsc1NC(=O)c1ccc(S(=O)(=O)Nc2cccc(F)c2)cc1 :: middle

###

# MIC values compiled below
system: Mycobacterium tuberculosis; assay: Antimycobacterial activity against Mycobacterium tuberculosis H37Rv measured by MABA assay; format: functional
Measurement Kind: MIC (µg/mL)

COC(=O)NC(=O)c1ccsc1NC(=O)c1ccc(S(=O)(=O)N2CCC(=O)CC2)cc1 :: 3.52
O=C(NC(=O)c1ccsc1NC(=O)c1ccc(S(=O)(=O)N2CCOCC2)cc1)OCC(F)(F)F :: 30.4
CCOC(=O)NC(=O)c1ccsc1NC(=O)c1ccc(S(=O)(=O)Nc2ccc([N+](=O)[O-])cc2)cc1 :: 3.61
COC(=O)NC(=O)c1ccsc1NC(=O)c1ccc(S(=O)(=O)N2CCCCC2)cc1 :: 0.24
CCOC(=O)NC(=O)c1ccsc1NC(=O)c1ccc(S(=O)(=O)N2CCCCCC2)cc1 :: 0.024
CCCOC(=O)NC(=O)c1ccsc1NC(=O)c1ccc(S(=O)(=O)N2CCOCC2)cc1 :: 2.45
CCOC(=O)NC(=O)c1ccsc1NC(=O)c1ccc(S(=O)(=O)Nc2ccccc2)cc1 :: 0.7
CCOC(=O)NC(=O)c1ccsc1NC(=O)c1ccc(S(=O)(=O)N2CCCCC2)cc1 :: 0.03
CCN(C)S(=O)(=O)c1ccc(C(=O)Nc2sccc2C(=O)NC(=O)OC)cc1 :: 0.49
CN[C@@H]1[C@H](O[C@H]2[C@H](O[C@H]3[C@H](O)[C@@H](O)[C@H](N=C(N)N)[C@@H](O)[C@@H]3N=C(N)N)O[C@@H](C)[C@]2(O)C=O)O[C@@H](CO)[C@H](O)[C@H]1O :: 0.49
COC(=O)NC(=O)c1ccsc1NC(=O)c1ccc(S(=O)(=O)N2CCC(C)CC2)cc1 :: 0.23
CCOC(=O)NC(=O)c1ccsc1NC(=O)c1ccc(S(=O)(=O)Nc2ccc(Br)cc2)cc1 :: 2.79
C[C@H]1COc2c(N3CCN(C)CC3)c(F)cc3c(=O)c(C(=O)O)cn1c23.C[C@H]1COc2c(N3CCN(C)CC3)c(F)cc3c(=O)c(C(=O)O)cn1c23.O :: 0.33
